Data provenance is patent US20260308145A1.

target: CDK1/cyclinB1 (Homo sapiens); experiment: Cyclin-dependent kinase activity assay (continuous ATP coupling assay), CDK1/cyclinB1; details: CDK1/cyclinB1 10 nM, ATP 200 μM, Histone1 copeptide 100 μM, 15 min preincubation, pH 7.5, 1% DMSO
Sequence (P06493 whole entry): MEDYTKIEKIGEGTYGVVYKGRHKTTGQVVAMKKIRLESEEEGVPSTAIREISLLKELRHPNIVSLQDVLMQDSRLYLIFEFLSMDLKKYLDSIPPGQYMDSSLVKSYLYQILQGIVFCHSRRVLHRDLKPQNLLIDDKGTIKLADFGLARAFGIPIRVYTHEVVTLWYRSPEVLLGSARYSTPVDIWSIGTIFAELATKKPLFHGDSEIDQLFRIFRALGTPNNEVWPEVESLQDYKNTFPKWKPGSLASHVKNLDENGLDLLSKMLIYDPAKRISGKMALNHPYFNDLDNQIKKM
Sequence (P14635 whole entry partner): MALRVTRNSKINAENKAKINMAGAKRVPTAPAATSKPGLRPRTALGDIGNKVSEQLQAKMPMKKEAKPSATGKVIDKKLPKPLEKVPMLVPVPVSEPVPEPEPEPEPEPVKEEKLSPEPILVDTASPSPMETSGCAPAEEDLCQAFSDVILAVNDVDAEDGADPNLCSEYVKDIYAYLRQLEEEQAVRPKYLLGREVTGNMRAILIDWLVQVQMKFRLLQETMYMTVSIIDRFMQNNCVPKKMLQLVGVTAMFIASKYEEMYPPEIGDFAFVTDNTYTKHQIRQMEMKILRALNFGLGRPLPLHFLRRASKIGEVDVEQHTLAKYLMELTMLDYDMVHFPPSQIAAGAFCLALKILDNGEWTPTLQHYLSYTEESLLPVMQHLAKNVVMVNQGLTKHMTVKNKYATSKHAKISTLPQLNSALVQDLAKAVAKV
pIC50: −log10 of the molar value.
pIC50 values for the compounds below.

Q. For CDK1/cyclinB1 (Homo sapiens), provide pIC50 of CNS(=O)(=O)c1ccc(Nc2ncc(Cl)c(-n3cc(CC(C)(C)O)cn3)n2)cc1 please.
A. 7.00 to 8.00

Q. For CDK1/cyclinB1 (Homo sapiens), provide pIC50 of CNS(=O)(=O)c1cccc(Nc2ncc(C(F)(F)F)c(-n3cccn3)n2)c1 please.
A. ≤ 7.00

Q. For CDK1/cyclinB1 (Homo sapiens), provide pIC50 of CNS(=O)(=O)c1ccc(Nc2ncc(C(F)(F)F)c(-n3cc(CCC(C)(C)O)cn3)n2)cc1 please.
A. 7.00 to 8.00

Q. For CDK1/cyclinB1 (Homo sapiens), provide pIC50 of CNS(=O)(=O)c1ccc(Nc2ncc(C(F)(F)F)c(-n3cc(CN4CCNCC4)cn3)n2)cc1 please.
A. ≤ 7.00

Q. For CDK1/cyclinB1 (Homo sapiens), provide pIC50 of COCCNS(=O)(=O)c1ccc(Nc2ncc(C(F)(F)F)c(-n3cccn3)n2)cc1 please.
A. ≤ 7.00

Q. For CDK1/cyclinB1 (Homo sapiens), provide pIC50 of CC(C)(O)Cc1cnn(-c2nc(NC3CCN(S(C)(=O)=O)CC3)ncc2C(F)(F)F)c1 please.
A. 7.00 to 8.00

Q. For CDK1/cyclinB1 (Homo sapiens), provide pIC50 of CNS(=O)(=O)c1ccc(Nc2ncc(C(F)F)c(-n3cccn3)n2)cc1 please.
A. ≤ 7.00

Q. For CDK1/cyclinB1 (Homo sapiens), provide pIC50 of CNS(=O)(=O)c1ccc(Nc2ncc(C(F)(F)F)c(-n3ncc(CC(C)(C)O)c3C)n2)cc1 please.
A. ≤ 7.00

----------
IC50 values for the molecules below.
target: CDK2/cyclinE1 (Homo sapiens, UniProt P24941); assay: Cyclin-dependent kinase activity assay (continuous ATP coupling assay), CDK2/cyclinE1; conditions: CDK2/cyclinE1 5 nM, ATP 300 μM, Rb copeptide 100 μM, 15 min preincubation, pH 7.5, 1% DMSO

Illustrative cases are given below, each with its answer.
CNS(=O)(=O)c1ccc(Nc2ncc(C(F)(F)F)c(-n3cc(C4CCN(C)CC4)cn3)n2)cc1; ≤ 10 nM
CNS(=O)(=O)c1ccc(Nc2ncc(C(F)(F)F)c(-n3cc([C@H]4C[C@H](O)C4)cn3)n2)cc1; 10 to 100 nM
CN1CCN(S(=O)(=O)c2ccc(Nc3ncc(C(F)(F)F)c(-n4cccn4)n3)cc2)CC1; 10 to 100 nM

Q. IC50 lookup needed for CNS(=O)(=O)c1ccc(Nc2ncc(C(F)(F)F)c(-n3cc(CCC(C)(C)O)cn3)n2)cc1 , thanks.
A. 10 to 100 nM

Q. IC50 lookup needed for N#Cc1cnc(Nc2ccc(S(=O)(=O)NCCO)cc2)nc1-n1cccn1 , thanks.
A. 10 to 100 nM

Q. IC50 lookup needed for CNS(=O)(=O)c1ccc(Nc2ncc(C(F)(F)F)c(-n3cc(C4CN(C)C4)cn3)n2)cc1 , thanks.
A. ≤ 10 nM

Q. IC50 lookup needed for O=S(=O)(NC1COC1)c1ccc(Nc2ncc(C(F)(F)F)c(-n3cccn3)n2)cc1 , thanks.
A. ≤ 10 nM

Q. IC50 lookup needed for [2H]C([2H])([2H])NS(=O)(=O)c1ccc(Nc2ncc(C(F)(F)F)c(-n3cc(CCO)cn3)n2)cc1 , thanks.
A. ≤ 10 nM

Q. IC50 lookup needed for CNS(=O)(=O)c1ccc(Nc2ncc(C(F)(F)F)c(-n3cc([C@H]4C[C@](C)(O)C4)cn3)n2)cc1 (single isomer, unassigned) , thanks.
A. 10 to 100 nM

Q. IC50 lookup needed for O=S(=O)(NC1(CO)CC1)c1ccc(Nc2ncc(C(F)(F)F)c(-n3cccn3)n2)cc1 , thanks.
A. ≤ 10 nM

----------
target: CDK2/cyclinE1 (Homo sapiens); test: Cyclin-dependent kinase activity assay (continuous ATP coupling assay), CDK2/cyclinE1; details: CDK2/cyclinE1 5 nM, ATP 300 μM, Rb copeptide 100 μM, 15 min preincubation, pH 7.5, 1% DMSO
parameter.measured: IC50

Illustrative cases are given below, each with its answer.
CNS(=O)(=O)c1ccc(Nc2ncc(C(F)(F)F)c(-n3cc(CN4CCNCC4)cn3)n2)cc1; 10 to 100 nM
O=S(=O)(NCCO)c1ccc(Nc2ncc(C(F)(F)F)c(-n3cccn3)n2)cn1; ≤ 10 nM
CNS(=O)(=O)c1ccc(Nc2ncc(C(F)(F)F)c(-n3cc(C4CCOC4)cn3)n2)cc1 (single isomer, unassigned) [Example 90]; 10 to 100 nM
CNS(=O)(=O)c1ccc(Nc2ncc(C(F)(F)F)c(-n3cc(C4CCNCC4)cn3)n2)cc1; ≤ 10 nM
CN(C)CCNS(=O)(=O)c1ccc(Nc2ncc(C(F)(F)F)c(-n3cccn3)n2)cc1; ≤ 10 nM

Q. IC50 lookup needed for CNS(=O)(=O)c1ccc(Nc2ncc(C(F)(F)F)c(-n3cc(C4(C#N)CC4)cn3)n2)cc1 , thanks.
A. 10 to 100 nM

----------
target: CDK4/cyclinD3 (Homo sapiens); experiment: Cyclin-dependent kinase activity assay (continuous ATP coupling assay), CDK4/cyclinD3; conditions: CDK4/cyclinD3 60 nM, ATP 500 μM, Rb copeptide 500 μM, 15 min preincubation, pH 7.5, 1% DMSO
Sequence (P11802 whole entry): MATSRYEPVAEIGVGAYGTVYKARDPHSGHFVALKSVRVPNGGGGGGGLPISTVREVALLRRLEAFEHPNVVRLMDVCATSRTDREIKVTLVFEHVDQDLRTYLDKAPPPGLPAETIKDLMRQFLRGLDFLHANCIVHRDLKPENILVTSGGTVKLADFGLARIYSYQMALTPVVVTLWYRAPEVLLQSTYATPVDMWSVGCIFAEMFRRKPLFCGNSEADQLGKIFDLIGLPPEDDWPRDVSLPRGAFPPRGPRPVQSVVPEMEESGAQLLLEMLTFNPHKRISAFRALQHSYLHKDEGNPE
Sequence (P30281 whole entry partner): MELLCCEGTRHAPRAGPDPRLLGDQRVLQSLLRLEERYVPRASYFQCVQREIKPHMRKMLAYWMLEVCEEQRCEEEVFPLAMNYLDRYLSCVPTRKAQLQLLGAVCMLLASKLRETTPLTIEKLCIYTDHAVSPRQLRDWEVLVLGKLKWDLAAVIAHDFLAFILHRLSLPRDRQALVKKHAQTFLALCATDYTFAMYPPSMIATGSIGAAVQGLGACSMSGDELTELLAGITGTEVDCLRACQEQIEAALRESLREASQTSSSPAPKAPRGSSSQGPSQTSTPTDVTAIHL
pIC50: −log10 of the molar value.
parameter.measured: pIC50

Illustrative cases are given below, each with its answer.
O=S(=O)(NC1CC(F)(F)C1)c1ccc(Nc2ncc(C(F)(F)F)c(-n3cccn3)n2)cc1 [Example 41]; ≤ 7.00
O=S(=O)(NCCOC(F)(F)F)c1ccc(Nc2ncc(C(F)(F)F)c(-n3cccn3)n2)cc1 [Example 128]; ≤ 7.00
CNS(=O)(=O)c1ccc(Nc2ncc(C(F)(F)F)c(-n3cc(CC(C)(C)O)c(C)n3)n2)cc1 [Example 70]; ≤ 7.00
O=S(=O)(NCC1(CO)CC1)c1ccc(Nc2ncc(C(F)(F)F)c(-n3cccn3)n2)cc1 [Example 132]; ≤ 7.00

Now examine the next entry.
Q. pIC50 lookup needed for CNS(=O)(=O)c1ccc(Nc2ncc(C(F)(F)F)c(-n3cc(C4CCCN4)cn3)n2)cc1 (single isomer, unassigned) [Example 92] , thanks.
A. ≥ 8.00

----------
biological target: CDK2/cyclinE1 (Homo sapiens); test: Cyclin-dependent kinase activity assay (continuous ATP coupling assay), CDK2/cyclinE1; conditions: CDK2/cyclinE1 5 nM, ATP 300 μM, Rb copeptide 100 μM, 15 min preincubation, pH 7.5, 1% DMSO
pIC50: −log10 of the molar value.
pIC50 values for the compounds below.

CNS(=O)(=O)c1ccc(Nc2ncc(C#N)c(-n3cc(CC(C)(C)O)cn3)n2)cc1 [Example 64]; ≥ 8.00

Now examine the next entry.
Q. pIC50 lookup needed for CNS(=O)(=O)c1ccc(Nc2ncc(C(F)(F)F)c(-n3cc(C4CC4)cn3)n2)cc1 [Example 50] , thanks.
A. ≥ 8.00

----------
pIC50 values for the molecules below.
molecular target: CDK1/cyclinB1 (Homo sapiens); assay: Cyclin-dependent kinase activity assay (continuous ATP coupling assay), CDK1/cyclinB1; details: CDK1/cyclinB1 10 nM, ATP 200 μM, Histone1 copeptide 100 μM, 15 min preincubation, pH 7.5, 1% DMSO
pIC50: −log10 of the molar value.

Q. pIC50 lookup needed for Cc1cnc(Nc2ccc(S(=O)(=O)NCCO)cc2)nc1-n1cccn1 , thanks.
A. ≤ 7.00

Q. pIC50 lookup needed for [2H]C([2H])([2H])NS(=O)(=O)c1ccc(Nc2ncc(C(F)(F)F)c(-n3ccc(C(F)(F)F)n3)n2)cc1 , thanks.
A. ≤ 7.00

Q. pIC50 lookup needed for CNS(=O)(=O)c1ccc(Nc2ncc(C(F)(F)F)c(-n3cc(C4CN(C(C)=O)C4)cn3)n2)cc1 , thanks.
A. ≤ 7.00

----------
molecular target: CDK6/cyclinD3 (Homo sapiens); construct: purchased Carna Biosciences 04-107; test: Cyclin-dependent kinase activity assay (continuous ATP coupling assay), CDK6/cyclinD3; assay type: biochemical; conditions: CDK6/cyclinD3 25 nM, ATP 500 μM, Rb copeptide 500 μM, 15 min preincubation, pH 7.5, 1% DMSO
Sequence (Q00534 whole entry): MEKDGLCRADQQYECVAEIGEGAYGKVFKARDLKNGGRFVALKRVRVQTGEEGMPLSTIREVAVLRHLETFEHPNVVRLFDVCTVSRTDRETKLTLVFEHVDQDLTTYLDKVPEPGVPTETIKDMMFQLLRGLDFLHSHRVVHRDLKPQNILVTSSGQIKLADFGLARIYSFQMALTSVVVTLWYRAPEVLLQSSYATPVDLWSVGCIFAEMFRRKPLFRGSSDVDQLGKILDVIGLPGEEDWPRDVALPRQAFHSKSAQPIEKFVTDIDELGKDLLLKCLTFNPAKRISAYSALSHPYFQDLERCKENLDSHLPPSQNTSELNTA
Sequence (P30281 whole entry partner): as the sequence (P30281 whole entry partner) above
IC50 values for the compounds below.

CNS(=O)(=O)c1ccc(Nc2ncc(C(F)(F)F)c(-n3cc([C@@H]4CCNC4)cn3)n2)cc1 [Example 94]; ≥ 100 nM
[2H]C([2H])([2H])NS(=O)(=O)c1ccc(Nc2ncc(C(F)(F)F)c(-n3cccn3)n2)cc1 [Example 17]; ≥ 100 nM
CNS(=O)(=O)c1ccc(Nc2ncc(C(F)(F)F)c(-n3cccn3)n2)cc1 [Example 16]; ≥ 100 nM
CC(C)(O)Cc1cnn(-c2nc(NC3CCN(S(C)(=O)=O)CC3)ncc2C(F)(F)F)c1 [Example 7]; 10 to 100 nM
CS(=O)(=O)Nc1ccc(Nc2ncc(C(F)(F)F)c(-n3cccn3)n2)cc1 [Example 120]; ≥ 100 nM
CNS(=O)(=O)c1ccc(Nc2ncc(C(F)(F)F)c(-n3cc(CC(C)(C)O)c(C)n3)n2)cc1 [Example 70]; ≥ 100 nM
CNS(=O)(=O)c1ccc(Nc2ncc(C(F)(F)F)c(-n3cc([C@H]4C[C@](C)(O)C4)cn3)n2)cc1 (single isomer, unassigned) [Example 104]; ≥ 100 nM
CNS(=O)(=O)c1ccc(Nc2ncc(C(F)(F)F)c(-n3cc(N4CCNCC4)cn3)n2)cc1 [Example 85]; ≥ 100 nM

Q. IC50 lookup needed for CC(CO)NS(=O)(=O)c1ccc(Nc2ncc(C(F)(F)F)c(-n3cccn3)n2)cc1 (stereo not drawn) [Example 133] , thanks.
A. ≥ 100 nM

Q. IC50 lookup needed for CC(C)(O)Cc1cnn(-c2nc(Nc3ccc(S(=O)(=O)NC4CC4)cc3)ncc2C(F)(F)F)c1 [Example 73] , thanks.
A. 10 to 100 nM

Q. IC50 lookup needed for CNS(=O)(=O)c1ccc(Nc2ncc(C(F)(F)F)c(-n3cc(C(C)(C)C#N)cn3)n2)cc1 [Example 49] , thanks.
A. 10 to 100 nM

Q. IC50 lookup needed for CNS(=O)(=O)c1ccc(Nc2ncc(C(F)(F)F)c(-n3cc(Br)cn3)n2)cc1 [Example 44] , thanks.
A. ≥ 100 nM

Q. IC50 lookup needed for CC(C)(O)c1cnn(-c2nc(NC3CCN(S(C)(=O)=O)CC3)ncc2F)c1 [Example 1] , thanks.
A. 10 to 100 nM
